Values from paper PMC10135378

Assay: DPPH radical scavenging assay
Settings: 30 min, room temperature, 517 nm
MEASUREMENT_NAME: pIC50
A value of pIC50 is the negative decimal logarithm of a concentration given in moles per litre.

Ask: Form field: reported pIC50 of Cc1c(C)c2c(c(C)c1O)CCC(C)(C(=O)O)O2 (stereo not shown) [Trolox, reference compound]
Reply: 4.00

Ask: For the compound COC(Cn1ccn(C)[c]1=[Ru]([I])[I])c1ccccc1.Cc1ccc(C(C)C)cc1 (stereo not shown) , what pIC50 is on record?
Reply: 3.67

Ask: Requested read-out: pIC50. Entry: COC(Cn1ccn(C)[c]1=[Ru]([Cl])[Cl])c1ccccc1.Cc1ccc(C(C)C)cc1 (stereo not shown)
Reply: 3.43

Ask: Reported pIC50, compound COC(Cn1c(Cl)c(Cl)n(C)[c]1=[Ru]([Cl])[Cl])c1ccccc1.Cc1ccc(C(C)C)cc1 (stereo not shown) : ____
Reply: 3.61
